# Assay System: NRAS G12C (Homo sapiens (Human), UniProt P01111+P62937, G12C)
# Sequence (P01111 whole entry G12C): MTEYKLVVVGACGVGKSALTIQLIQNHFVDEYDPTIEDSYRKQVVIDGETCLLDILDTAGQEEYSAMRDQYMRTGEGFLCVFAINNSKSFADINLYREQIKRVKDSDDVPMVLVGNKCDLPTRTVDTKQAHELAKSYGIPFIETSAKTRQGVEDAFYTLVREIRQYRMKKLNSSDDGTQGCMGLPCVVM
# Sequence (P62937 whole entry): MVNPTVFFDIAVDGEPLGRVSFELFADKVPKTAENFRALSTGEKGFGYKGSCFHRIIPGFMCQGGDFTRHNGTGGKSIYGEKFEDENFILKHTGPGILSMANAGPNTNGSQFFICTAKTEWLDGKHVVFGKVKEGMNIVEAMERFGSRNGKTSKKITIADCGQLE
# Assay: Ras-Raf (BRAF RBD) disruption / FRET / MOA assay, NRAS G12C
# Type: biochemical
# Setup Conditions: read-out: IC50* NRAS G12C FRET data
pIC50: −log10 of the molar value.
Each entry below lists one item and its recorded pIC50 value.
Measured Property: pIC50

>>> obs_value("C=CC(=O)N1CC[C@H](C(=O)N(C)[C@H](C(=O)N[C@H]2CC3=CCCN(C3)c3ccc4c(c3)c(c(-c3cccnc3[C@H](C)OC)n4CC)CC(C)(C)COC(=O)[C@@H]3CCCN(N3)C2=O)C(C)C)C1 (atropisomer, axis not shown)")
"6.00 to 7.00"
>>> obs_value("CCn1c(-c2cncnc2)c2c3cc(ccc31)-c1cccc(c1)[C@@H](OC)[C@H](NC(=O)[C@H](C(C)C)N(C)C(=O)[C@H]1CCN(C(=O)C#CCN3CCOCC3)C1)C(=O)N1CCC[C@H](N1)C(=O)OCC(C)(C)C2")
"5.00 to 6.00"
>>> obs_value("CC#CC(=O)N1CC[C@H](C(=O)N(C)[C@H](C(=O)N[C@H]2Cc3cccc(c3)-c3ccc4c(c3)c(c(-c3cccnc3[C@H](C)OC)n4CC)CC(C)(C)COC(=O)[C@@H]3CCCN(N3)C2=O)C(C)C)C1 (atropisomer, axis not shown)")
"6.00 to 7.00"
>>> obs_value("C=CC(=O)N1CC[C@H](C(=O)N(C)[C@H](C(=O)N[C@H]2C[C@H]3CN(CCO3)c3ccc4c(c3)c(c(-c3cccnc3COC)n4CC)CC(C)(C)COC(=O)[C@@H]3CCCN(N3)C2=O)C(C)C)C1")
"5.00 to 6.00"
>>> obs_value("CCn1c(-c2cccnc2[C@H](C)OC)c2c3cc(ccc31)-c1cccc(c1)C[C@H](NC(=O)[C@H](C(C)C)N(C)C(=O)[C@H]1CCN(S(=O)(=O)C=C(C)C)C1)C(=O)N1CCC[C@H](N1)C(=O)OCC(C)(C)C2 (atropisomer, axis not shown)")
"5.00 to 6.00"

====

# Assay System: KRAS G13D (Homo sapiens (Human), UniProt P01116+P62937, G13D)
# Sequence (P01116-2 other isoform, or with tags, fused parts or gaps G13D, one chain of several): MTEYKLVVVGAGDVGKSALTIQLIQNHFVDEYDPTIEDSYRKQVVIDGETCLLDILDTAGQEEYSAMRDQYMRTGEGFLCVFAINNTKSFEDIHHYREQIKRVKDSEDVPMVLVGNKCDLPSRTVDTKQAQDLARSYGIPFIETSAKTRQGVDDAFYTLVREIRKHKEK
# Assay: Ras-Raf (BRAF RBD) disruption / FRET / MOA assay, KRAS G13D
# Assay type: biochemical
# Setup Conditions: read-out: IC50* KRAS G13D FRET data
pIC50: −log10 of the molar value.
Measured Property: pIC50

>>> obs_value("CCn1c(-c2cccnc2[C@H](C)OC)c2c3cc(ccc31)-c1cc(O)cc(c1)C[C@H](NC(=O)[C@H](C(C)C)N1CCC3(CN(C(=O)/C=C/CN(C)C)C3)C1=O)C(=O)N1CCC[C@H](N1)C(=O)OCC(C)(C)C2 (atropisomer, axis not shown) [Example A270]")
"7.00 to 8.00"
>>> obs_value("C=CC(=O)N1CCN(C(=O)N(C)[C@H](C(=O)N[C@H]2Cc3nc(cs3)-c3ccc4c(c3)c(c(-c3cccnc3[C@H](C)OC)n4CC(F)(F)F)CC(C)(C)COC(=O)[C@@H]3CCCN(N3)C2=O)C(C)C)CC1 (atropisomer, axis not shown) [Example A465]")
"7.00 to 8.00"
>>> obs_value("CCn1c(-c2cccnc2[C@H](C)OC)c2c3cc(ccc31)-c1csc(n1)C[C@H](NC(=O)[C@H](C(C)C)N(C)C(=O)N1CCC3(CC1)CN(C(=O)/C=C/CN1CCOCC1)C3)C(=O)N1CCC[C@H](N1)C(=O)OCC(C)(C)C2 (atropisomer, axis not shown) [Example A669]")
"6.00 to 7.00"
>>> obs_value("C=CC(=O)N1CC[C@H](C(=O)N(C)[C@H](C(=O)N[C@H]2Cc3cccc(c3)-c3ccc4c(c3)c(c(-c3cc5c(nc3[C@H](C)OC)CCN(C)C5)n4CC)CC(C)(C)COC(=O)[C@@H]3CCCN(N3)C2=O)C(C)C)C1 (atropisomer, axis not shown) [Example A461]")
"< 5.00"
>>> obs_value("CO[C@@H](C)c1ncccc1-c1c2c3cc(ccc3n1CC(F)(F)F)-c1cnc(o1)C[C@H](NC(=O)[C@H](C(C)C)N(C)C(=O)[C@H]1CCN(C(=O)C#CC(C)(C)N(C)C)C1)C(=O)N1CCC[C@H](N1)C(=O)OCC(C)(C)C2 (atropisomer, axis not shown) [Example A707]")
"5.00 to 6.00"
>>> obs_value("C=CC(=O)N1CCO[C@@H]2CN(C(=O)N(C)[C@H](C(=O)N[C@H]3Cc4nc(cs4)-c4ccc5c(c4)c(c(-c4cccnc4[C@H](C)OC)n5CC)CC(C)(C)COC(=O)[C@@H]4CCCN(N4)C3=O)C(C)C)C[C@@H]21 (atropisomer, axis not shown) [Example A714]")
"5.00 to 6.00"
>>> obs_value("CCn1c(-c2cccnc2[C@H](C)OC)c2c3cc(ccc31)-c1csc(n1)C[C@H](NC(=O)CCOC1CN(C(=O)C#CC(C)(C)N(C)C)C1)C(=O)N1CCC[C@H](N1)C(=O)OCC(C)(C)C2 (atropisomer, axis not shown) [Example A427]")
"5.00 to 6.00"

====

# Assay System: KRAS G13D (Homo sapiens (Human), UniProt P01116+P62937, G13D)
# Assay: Ras-Raf (BRAF RBD) disruption / FRET / MOA assay, KRAS G13D
# Assay type: biochemical
# Setup Conditions: read-out: IC50* KRAS G13D FRET data
pIC50: −log10 of the molar value.
Each entry below lists one item and its recorded pIC50 value.
Measured Property: pIC50

>>> obs_value("CCn1c(-c2cccnc2[C@H](C)OC)c2c3cc(ccc31)-c1csc(n1)C[C@H](NC(=O)[C@@H](F)COC1CN(C(=O)C#CC(C)(C)N(C)C)C1)C(=O)N1CCC[C@H](N1)C(=O)OCC(C)(C)C2 (atropisomer, axis not shown)")
"5.00 to 6.00"
>>> obs_value("CCn1c(-c2cccnc2[C@H](C)OC)c2c3cc(ccc31)-c1cccc(c1)C[C@H](NC(=O)[C@H](C1CCCC1)N(C)C(=O)[C@@H]1CN(C(=O)C#CC(C)(C)N(C)C)C[C@@H]1C)C(=O)N1CCC[C@H](N1)C(=O)OCC(C)(C)C2 (atropisomer, axis not shown)")
"5.00 to 6.00"
>>> obs_value("CCn1c(-c2cccnc2[C@H](C)OC)c2c3cc(ccc31)N1CCO[C@@H](C[C@H](NC(=O)[C@@H](COC3CCN(C(=O)C#CC(C)(C)N(C)C)CC3)C(C)C)C(=O)N3CCC[C@H](N3)C(=O)OCC(C)(C)C2)C1 (atropisomer, axis not shown)")
"< 5.00"
>>> obs_value("CC#CC(=O)N1CC[C@H](C(=O)N(C)[C@H](C(=O)N[C@H]2Cc3cccc(c3)-c3ccc4c(c3)c(c(-c3cccnc3[C@H](C)OC)n4CC)CC(C)(C)COC(=O)[C@@H]3CCCN(N3)C2=O)C2CCCC2)C1 (atropisomer, axis not shown)")
"< 5.00"

====

# Assay System: K-Ras G13C (Homo sapiens (Human), UniProt P01116+P62937, G13C)
# Sequence (P01116-2 other isoform, or with tags, fused parts or gaps G13C, one chain of several): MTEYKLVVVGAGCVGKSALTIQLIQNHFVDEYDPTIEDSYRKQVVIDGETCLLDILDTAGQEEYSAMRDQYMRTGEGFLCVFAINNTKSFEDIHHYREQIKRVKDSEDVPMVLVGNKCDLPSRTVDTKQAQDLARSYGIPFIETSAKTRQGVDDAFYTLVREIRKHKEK
# Assay: Ras-Raf (BRAF RBD) disruption / FRET / MOA assay, KRAS G13C
# Format: biochemical
# Setup Conditions: KRAS G13C; Ras-Raf disruption/FRET/MOA assay; read-out: IC50* KRAS G13C FRET data
Each entry below lists one item and its recorded IC50 value.
Measured Property: IC50

>>> obs_value("C=CC(=O)N1CCN(C(=O)N(C)[C@H](C(=O)N[C@H]2Cc3nc(cs3)-c3ccc4c(c3)c(c(-c3cccnc3[C@H](C)OC)n4CC)CC(C)(C)COC(=O)[C@@H]3CCCN(N3)C2=O)C(C)C)CC12CC2 (atropisomer, axis not shown)")
"10 to 100 nM"
>>> obs_value("C=CC(=O)N1CC(OCC(C(=O)N[C@H]2Cc3nc(cs3)-c3ccc4c(c3)c(c(-c3cccnc3[C@H](C)OC)n4CC)CC(C)(C)COC(=O)[C@@H]3CCCN(N3)C2=O)C(C)C)C1 (mixture of isomers)")
"1000 to 10000 nM"
>>> obs_value("C=CC(=O)N1CCO[C@H]2CN(C(=O)N(C)[C@H](C(=O)N[C@H]3Cc4nc(n(C)n4)-c4ccc5c(c4)c(c(-c4cccnc4[C@H](C)OC)n5CC(F)(F)F)CC(C)(C)COC(=O)[C@@H]4CCCN(N4)C3=O)C(C)C)C[C@H]21 (atropisomer, axis not shown)")
"10 to 100 nM"
>>> obs_value("C=CC(=O)Nc1cnc(OC[C@H](C(=O)N[C@H]2Cc3cccc(c3)-c3ccc4c(c3)c(c(-c3cccnc3[C@H](C)OC)n4CC)CC(C)(C)COC(=O)[C@@H]3CCCN(N3)C2=O)C(C)C)n1C (atropisomer, axis not shown)")
"10 to 100 nM"
>>> obs_value("CCn1c(-c2cccnc2[C@H](C)OC)c2c3cc(ccc31)-c1cccc(c1)C[C@H](NC(=O)[C@H](C(C)C)N1CC[C@]3(CCN(C(=O)C#CC(C)(C)N(C)C)C3)C1=O)C(=O)N1CCC[C@H](N1)C(=O)OCC(C)(C)C2 (atropisomer, axis not shown)")
"100 to 1000 nM"
>>> obs_value("CCn1c(-c2cccnc2[C@H](C)OC)c2c3cc(ccc31)-c1csc(n1)C[C@H](NC(=O)[C@H](C(C)C)N(C)C(=O)N1CCN(C(=O)/C=C/CN3CCOCC3)C3(CC3)C1)C(=O)N1CCC[C@H](N1)C(=O)OCC(C)(C)C2 (atropisomer, axis not shown)")
"100 to 1000 nM"
